- Method Summary: Liver microsome stability
- Format: in vitro ADME, mouse
- Stated Conditions: amount of substrate remaining; compound 1 μM, 30 minutes, 37° C., NADPH
Field: label. Allowed values: Fulfilled (Mouse (%) < 70%) or Not fulfilled (Mouse (%) >= 70%).

Before answering, review these 6 worked examples.
>  <Smiles Entry>
COc1cc(NN=C(C#N)C#N)ccc1OCc1cccs1

>  <Assigned Label>
Fulfilled

$$$$
>  <Smiles Entry>
Cc1cnc(C(=O)Nc2ccc(NN=C(C#N)C#N)c(F)c2)cn1

>  <Assigned Label>
Fulfilled

$$$$
>  <Smiles Entry>
Cc1cc(NN=C(C#N)C#N)ccc1OCc1cccnn1

>  <Assigned Label>
Not fulfilled

$$$$
>  <Smiles Entry>
COc1cc(NN=C(C#N)C#N)ccc1OCc1cc[nH]n1

>  <Assigned Label>
Not fulfilled

$$$$
>  <Smiles Entry>
N#CC(C#N)=NNc1ccc(Oc2cccc(F)c2)nc1

>  <Assigned Label>
Not fulfilled

$$$$
>  <Smiles Entry>
N#CC(C#N)=NNc1ccc(NC(=O)c2ccc(C(F)(F)F)cc2)nc1

>  <Assigned Label>
Fulfilled

$$$$

IN: Mouse (%) strictly < 70% for this compound? Cc1cnc(C(=O)Nc2ccc(NN=C(C#N)C#N)cn2)cn1
OUT: Fulfilled

IN: Mouse (%) strictly < 70% for this compound? COc1cc(NN=C(C#N)C#N)ccc1OCc1cc2ccccc2s1
OUT: Not fulfilled

IN: Mouse (%) strictly < 70% for this compound? N#CC(C#N)=NNc1ccc(NC(=O)c2ccoc2)nc1
OUT: Not fulfilled

IN: Mouse (%) strictly < 70% for this compound? N#CC(C#N)=NNc1ccc(NC(=O)c2ccc(F)cc2)nc1
OUT: Fulfilled

IN: Mouse (%) strictly < 70% for this compound? N#CC(C#N)=NNc1ccc(Oc2ccccc2)nc1
OUT: Not fulfilled

IN: Mouse (%) strictly < 70% for this compound? Cc1cc(NN=C(C#N)C#N)ccc1OCc1cc2ccccc2s1
OUT: Not fulfilled

IN: Mouse (%) strictly < 70% for this compound? Cc1cc(NN=C(C#N)C#N)ccc1OCc1ccc(C(F)(F)F)cc1
OUT: Not fulfilled

IN: Mouse (%) strictly < 70% for this compound? Cc1cc(NN=C(C#N)C#N)ccc1OCc1nc2ccccc2s1
OUT: Fulfilled

IN: Mouse (%) strictly < 70% for this compound? COc1cc(NN=C(C#N)C#N)ccc1OCc1cnn(C)c1
OUT: Not fulfilled

IN: Mouse (%) strictly < 70% for this compound? Cc1cc(F)cc(C(=O)Nc2ccc(NN=C(C#N)C#N)cn2)c1
OUT: Fulfilled

IN: Mouse (%) strictly < 70% for this compound? Cc1cc(NN=C(C#N)C#N)ccc1OCc1ncccn1
OUT: Fulfilled

IN: Mouse (%) strictly < 70% for this compound? Cc1cnc(C(=O)Nc2ccc(NN=C(C#N)C#N)c(C)c2)cn1
OUT: Not fulfilled

IN: Mouse (%) strictly < 70% for this compound? Cc1cncc(NC(=O)c2ccc(NN=C(C#N)C#N)cc2)n1
OUT: Not fulfilled

IN: Mouse (%) strictly < 70% for this compound? COc1cc(NN=C(C#N)C#N)ccc1OCc1nc2ccccc2[nH]1
OUT: Fulfilled

IN: Mouse (%) strictly < 70% for this compound? COc1cc(NN=C(C#N)C#N)ccc1OCc1cccnn1
OUT: Fulfilled

IN: Mouse (%) strictly < 70% for this compound? Cc1cc(NN=C(C#N)C#N)ccc1OCc1cnccn1
OUT: Not fulfilled

IN: Mouse (%) strictly < 70% for this compound? COc1cc(NN=C(C#N)C#N)ccc1C(=O)Nc1cnc(C)cn1
OUT: Not fulfilled

IN: Mouse (%) strictly < 70% for this compound? Cc1ccc(NC(=O)c2ccc(NN=C(C#N)C#N)cn2)cn1
OUT: Not fulfilled

---

- Target Of Assay: tau protein (Homo sapiens)
- Construct: fused on or other part: Split fluorescent-protein halves for BiFC are fused to tau; In the published tau-BiFC line these are Venus VN173 and VC155
- Method Summary: Tau-BiFC cell model: inhibition of tau protein aggregation
- Assay type: cell-based
- Stated Conditions: 48 h; compound 10 μM; BiFC fluorescence, Forskolin-only group = 100% tau protein-aggregated state; read-out: Response (% @10 μM)
Readout Type: remaining activity at 10 µM (%)
Give bare numbers, in %.

Look over these answered cases.
>  <Compound>
Cc1ccc(NC(=O)c2ccc(NN=C(C#N)C#N)cc2C)cn1 [Compound 53]

>  <Readout Type>
remaining activity at 10 µM

>  <Value Observed>
22.9

$$$$
>  <Compound>
N#CC(C#N)=NNc1ccc(OCc2ccccc2)nc1 [Compound 95]

>  <Readout Type>
remaining activity at 10 µM

>  <Value Observed>
0

$$$$
>  <Compound>
CN(N=C(C#N)C#N)c1ccc(Oc2ccccc2)c(F)c1 [Compound 77]

>  <Readout Type>
remaining activity at 10 µM

>  <Value Observed>
84.8

$$$$
>  <Compound>
Cc1cnc(C(=O)Nc2ccc(NN=C(C#N)C#N)cn2)cn1 [Compound 1]

>  <Readout Type>
remaining activity at 10 µM

>  <Value Observed>
0

$$$$
>  <Compound>
Cc1cnc(NC(=O)c2ccc(NN=C(C#N)C#N)cc2C)cn1 [Compound 52]

>  <Readout Type>
remaining activity at 10 µM

>  <Value Observed>
24

$$$$
>  <Compound>
N#CC(C#N)=NNc1ccc(NC(=O)c2cnco2)nc1 [Compound 114]

>  <Readout Type>
remaining activity at 10 µM

>  <Value Observed>
0

$$$$
>  <Compound>
N#CC(C#N)=NNc1ccc(OCCc2ccc(C(F)(F)F)cc2)c(C(F)(F)F)c1 [Compound 135]

>  <Readout Type>
remaining activity at 10 µM

>  <Value Observed>
0

$$$$
>  <Compound>
N#CC(C#N)=NNc1ccc(OCc2nc3ccccc3[nH]2)cc1 [Compound 126]

>  <Readout Type>
remaining activity at 10 µM

>  <Value Observed>
0

$$$$
>  <Compound>
N#CC(C#N)=NNc1ccc(Oc2cccc(C#N)c2)cc1 [Compound 88]

>  <Readout Type>
remaining activity at 10 µM

>  <Value Observed>
0

$$$$
>  <Compound>
COc1cc(NN=C(C#N)C#N)ccc1NC(=O)c1cnc(C)cn1 [Compound 10]

>  <Readout Type>
remaining activity at 10 µM

>  <Value Observed>
0

$$$$

Hi there! I need remaining activity at 10 µM for each item below, if you can.
1. N#CC(C#N)=NNc1ccc(OCc2ncccn2)cc1 [Compound 136]
2. N#CC(C#N)=NNc1ccc(OCCc2ccc(Cl)cc2)c(C(F)(F)F)c1 [Compound 133]
3. Cc1cncc(NC(=O)c2ccc(NN=C(C#N)C#N)cn2)c1 [Compound 39]
4. COc1ccc(S(=O)(=O)Nc2ccc(NN=C(C#N)C#N)cn2)cc1 [Compound 59]
5. N#CC(C#N)=NNc1ccc(Oc2ccccc2F)cc1 [Compound 93]
6. Cc1ccccc1C(=O)Nc1ccc(NN=C(C#N)C#N)cn1 [Compound 25]
7. N#CC(C#N)=NNc1ccc(NC(=O)c2cnc3ccccc3n2)nc1 [Compound 32]
8. N#CC(C#N)=NNc1ccc(C(=O)Nc2cncnc2)nc1 [Compound 42]

OUT:
1: 0; 2: 0; 3: 0; 4: 74.3; 5: 0; 6: 0; 7: 0; 8: 0

---

- Target Of Assay: CYP2D6 (Homo sapiens, UniProt P10635)
- Construct: human liver microsomes (0.25 mg/mL); from tissue; host or cells: human liver microsomes
- Sequence (P10635 whole entry): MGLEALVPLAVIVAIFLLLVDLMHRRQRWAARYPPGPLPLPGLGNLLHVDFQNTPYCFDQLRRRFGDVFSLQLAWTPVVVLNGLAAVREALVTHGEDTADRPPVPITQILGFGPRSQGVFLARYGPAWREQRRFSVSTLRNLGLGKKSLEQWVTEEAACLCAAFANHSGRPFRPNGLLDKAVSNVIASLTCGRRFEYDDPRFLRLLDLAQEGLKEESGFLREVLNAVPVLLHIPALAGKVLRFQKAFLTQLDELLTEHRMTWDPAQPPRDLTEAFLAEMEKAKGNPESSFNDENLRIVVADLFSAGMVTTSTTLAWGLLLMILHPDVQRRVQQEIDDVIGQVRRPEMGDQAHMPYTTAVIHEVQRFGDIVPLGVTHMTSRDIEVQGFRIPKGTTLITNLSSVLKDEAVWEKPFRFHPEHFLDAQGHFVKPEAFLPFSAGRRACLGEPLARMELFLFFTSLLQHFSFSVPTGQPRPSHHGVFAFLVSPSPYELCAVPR
- Method Summary: Inhibitory effect on CYP coenzyme activity, human liver microsomes
- Assay type: in vitro ADME
- Stated Conditions: compound 10 μM; human liver microsomes 0.25 mg/mL; substrate dextromethorphan; 15 minutes
Exercise: for every item that follows, state its recorded CYP2D6.
Answers are plain numbers.

Look over these answered cases.
>  <Smiles Entry>
COc1cc(NN=C(C#N)C#N)ccc1OCc1cnc(C)cn1

>  <CYP2D6>
70.3

$$$$
>  <Smiles Entry>
Cc1cc(NN=C(C#N)C#N)ccc1OCc1cscn1

>  <CYP2D6>
96.1

$$$$

Hi there! I need CYP2D6 for each item below, if you can.
1. COc1cc(NN=C(C#N)C#N)ccc1OCc1cnccn1
2. COc1cc(NN=C(C#N)C#N)ccc1OCc1ccc(C)cc1
3. Cc1cc(NN=C(C#N)C#N)ccc1OCc1cc[nH]n1
4. N#CC(C#N)=NNc1ccc(NC(=O)c2ccoc2)nc1
5. N#CC(C#N)=NNc1ccc(NC(=O)c2ccc(C(F)(F)F)cc2)nc1

OUT:
[86.1, 81.7, 94.8, 91.3, 76]

---

Exercise: for every item that follows, state its recorded pIC50.
- Target Of Assay: tau protein (Homo sapiens, UniProt P10636)
- Construct: fused on or other part: Split fluorescent-protein halves for BiFC are fused to tau; In the published tau-BiFC line these are Venus VN173 and VC155
- Sequence (P10636 2-441 isoform P10636-8 limits assumed): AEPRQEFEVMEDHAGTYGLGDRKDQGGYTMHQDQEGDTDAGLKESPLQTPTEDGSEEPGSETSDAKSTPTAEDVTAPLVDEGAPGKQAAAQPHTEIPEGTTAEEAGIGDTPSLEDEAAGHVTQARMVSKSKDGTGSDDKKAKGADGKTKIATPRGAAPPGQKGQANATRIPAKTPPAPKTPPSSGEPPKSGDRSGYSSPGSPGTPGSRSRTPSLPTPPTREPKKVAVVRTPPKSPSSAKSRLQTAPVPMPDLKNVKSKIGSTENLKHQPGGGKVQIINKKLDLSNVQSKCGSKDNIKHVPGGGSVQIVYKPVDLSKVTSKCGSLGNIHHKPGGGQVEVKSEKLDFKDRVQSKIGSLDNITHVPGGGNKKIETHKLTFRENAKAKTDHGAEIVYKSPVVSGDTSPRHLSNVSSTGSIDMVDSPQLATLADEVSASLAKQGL
- Method Summary: Tau-BiFC cell model: inhibition of tau protein aggregation
- Stated Conditions: Tau BiFC in cells; with Forskolin 30 μM, 48 hours
Numbers only, as −log10 of the molar value.

>  <Smiles Entry>
N#CC(C#N)=NNc1ccc(OCCc2ccc(Cl)cc2)cc1

>  <Target Of Assay>
tau protein (Homo sapiens, UniProt P10636)

>  <Value Observed>
6.11

$$$$
>  <Smiles Entry>
Cc1cnc(C(=O)Nc2ccc(NN=C(C#N)C#N)cc2C)cn1

>  <Target Of Assay>
tau protein (Homo sapiens, UniProt P10636)

>  <Value Observed>
7.40

$$$$

Hi there! I need pIC50 for each item below, if you can.
1. Cc1cnc(C(=O)Nc2ccc(NN=C(C#N)C#N)cc2)cn1
2. N#CC(C#N)=NNc1ccc(Oc2cccnn2)cc1
3. COc1ccc(CCOc2ccc(NN=C(C#N)C#N)cn2)cc1
4. COc1cc(NN=C(C#N)C#N)ccc1OCc1nc2ccccc2o1

OUT:
1: 5.85; 2: 6.26; 3: 6.02; 4: 6.67
